- MEASUREMENT_CONDITIONS: 343.15 K; 100 kPa; Liquid; Concentric cylinders viscometry
QUANTITY_NAME: viscosity (mPa·s)
Return type: number; implicit unit mPa·s.

Given the entry CCCCn1cc[n+](C)c1.N#CN=C=[N-] [1-butyl-3-methylimidazolium dicyanamide] , report its measured viscosity.
8.298

###

Recorded viscosity for the following compounds
- MEASUREMENT_CONDITIONS: 298.15 K; 100 kPa; Liquid; Concentric cylinders viscometry
Return type: number; implicit unit mPa·s.

CCCCn1cc[n+](C)c1.N#C[S-] [1-butyl-3-methylimidazolium thiocyanate]: 62.63
CC(=O)[O-].CCCCn1cc[n+](C)c1 [1-butyl-3-methylimidazolium acetate]: 292.57
CCCCn1cc[n+](C)c1.COP(=O)([O-])OC [1-butyl-3-methyl-1H-imidazolium dimethylphosphate]: 641.71
CCCCn1cc[n+](C)c1.N#CN=C=[N-] [1-butyl-3-methylimidazolium dicyanamide]: 30.08

Lab note: next compound to report on.
Given the entry CCCCn1cc[n+](C)c1.F[B-](F)(F)F [1-butyl-3-methylimidazolium tetrafluoroborate] , report its measured viscosity.
108.74

###

Recorded mass density for the following compounds
- MEASUREMENT_CONDITIONS: 288.15 K; 100 kPa; Liquid; Vibrating tube method
± gives the expanded uncertainty stated by the source.
Form entry: enter the amount, then its unit.

// solved cases for mass density follow
CCCC[n+]1ccn(C)c1.O=S(=O)([N-]S(=O)(=O)C(F)(F)F)C(F)(F)F: 1446.9 ± 0.8 kg/m3
CCCCn1cc[n+](C)c1.COP(=O)([O-])OC [1-butyl-3-methyl-1H-imidazolium dimethylphosphate]: 1164.9 ± 1.2 kg/m3

Given the entry CC(=O)[O-].CCCCn1cc[n+](C)c1 [1-butyl-3-methylimidazolium acetate] , report its measured mass density.
1059.4 ± 1 kg/m3

###

- MEASUREMENT_CONDITIONS: 343.15 K; 100 kPa; Liquid; Concentric cylinders viscometry
Numbers after ± are expanded uncertainties.
Recorded viscosity for the following compounds

// solved cases for viscosity follow
CCCCn1cc[n+](C)c1.COP(=O)([O-])OC [1-butyl-3-methyl-1H-imidazolium dimethylphosphate]: 53.39 ± 2.7 mPa·s
CCCCn1cc[n+](C)c1.N#C[S-] [1-butyl-3-methylimidazolium thiocyanate]: 13.24 ± 0.68 mPa·s

Given the entry CC(=O)[O-].CCCCn1cc[n+](C)c1 [1-butyl-3-methylimidazolium acetate] , report its measured viscosity.
28.48 ± 1.5 mPa·s

Given the entry CCCCn1cc[n+](C)c1.F[B-](F)(F)F [1-butyl-3-methylimidazolium tetrafluoroborate] , report its measured viscosity.
18.7 ± 0.94 mPa·s
